Test system: TK-10
Assay: NCI tumour cell line growth inhibition, 48 h
Active and inactive are the calls of the source. Rule as the data show it: active = GI50 up to about 1.1 µM and inactive = higher.

compound: CCc1ccccc1NC(=O)C(=O)C(C(=O)c1ccc(OC)cc1)c1ccc(OC)cc1 (stereo not given)
GI50: > 100 µM (inactive)
--
compound: Brc1ccc(-c2ccc(-c3ccc(-c4ccc(Br)s4)s3)s2)s1
GI50: > 100 µM (inactive)
--
compound: COc1cc2oc(=O)cc(C)c2c(OC)c1OC(C)=O
GI50: > 100 µM (inactive)
--
compound: O=C1N2CCc3c([nH]c4ccccc34)C23CC2CCCCC12S3 (stereo not given)
GI50: 28.3 µM (inactive)
--
compound: CN(CCN1C(=O)c2cccc3cccc(c23)C1=O)CCN1C(=O)c2cccc3cccc(c23)C1=O
GI50: 14.1 µM (inactive)

====

Test system: MOLT-4
Assay: NCI tumour cell line growth inhibition, 48 h
Active and inactive are the calls of the source. No stated cut-off is given here; in the data, active = GI50 up to about 1.1 µM and inactive = higher.
Labels: Yes = active, No = inactive

compound: [O-][n+]1ccccc1S
group: Yes
//
compound: C=CCC1(C)CCCN(Cc2ccccc2)C1=O (configuration not stated)
group: No
//
compound: CN(C)NC1=NS(=O)(=O)c2cc3c(cc2S1)N(N(C)C)C(=O)c1cc2c(cc1N(N(C)C)C3=O)SC(NN(C)C)=NS2(=O)=O
group: No
//
compound: COC(=O)c1ccc(S)c(S(=O)(=O)Nc2nc(N)n[nH]2)c1
group: No
//
compound: CC1CCCCc2nc3c(c(=O)n21)CCCC3 (configuration not stated)
group: No
//
compound: COC(=O)CNC(=O)C(Cc1ccccc1)NC(=O)c1ccc(-c2ccc(Cl)cc2Cl)o1 (configuration not stated)
group: No
//
compound: COc1cc(/C=C2\CCC(C)C3=C2N=c2s/c(=C/c4ccc(Cl)cc4)c(=O)n2C3c2cc(OC)c(OC)c(OC)c2)cc(OC)c1OC (configuration not stated)
group: No
//
compound: NCCCNC1(c2cc3ccccc3s2)CCCCC1
group: No
//
compound: CC1C=CC(=O)C(n2cc(F)c(=O)[nH]c2=O)O1 (configuration not stated)
group: No
//
compound: N#Cc1nc(/C=C/c2cccs2)oc1N
group: No
//
compound: CCOC(=O)CC(c1ccccc1)C(C)(C(=O)OCC)C(=O)OCC (configuration not stated)
group: No
//
compound: COc1nc(O)c(N)c(NC2OC(CO)C(O)C(O)C2O)n1 (configuration not stated)
group: No
//
compound: CCCC1CC(=O)NC(=O)C1C(=O)OC(C)(C)C (configuration not stated)
group: No
//
compound: Cc1ccc2c(c1)/C(=N/Nc1ccccc1[N+](=O)[O-])C(=O)N2
group: No
//
compound: Cc1c2ccccc2cc2nc3ccccc3n12
group: No
//
compound: CC(C(=O)C(C)O[Si](c1ccccc1)(c1ccccc1)C(C)(C)C)=P(c1ccccc1)(c1ccccc1)c1ccccc1 (configuration not stated)
group: No
//
compound: O=C(NCCNCCCNC(=O)c1cc(-c2ccccc2)nc2ccccc12)c1cccc(OCc2ccccc2)c1OCc1ccccc1
group: No
//
compound: NC(=O)CCC(Nc1c2ccccc2nc2ccccc12)C(=O)O (configuration not stated)
group: No
//
compound: CC1C/C(=C\c2ccc(O)c(O)c2)C(=O)/C(=C/c2ccc(O)c(O)c2)C1 (configuration not stated)
group: No
//
compound: CC(=S)N/C=C1/C(=O)C=C(C)OC1=O
group: No
//
compound: O=S(=O)(OI(O)CC(F)(F)F)C(F)(F)F
group: No
//
compound: O=C1CCC(=O)c2ccccc2N1
group: No
//
compound: Cn1c(=O)n2n(c1=O)Cc1cccc3cccc(c13)C2
group: No
//
compound: COC(=O)C1[C@@H](C(=O)OC)C(=O)O[C@H]1c1cc(OC)c(OC)c(OC)c1 (some centres not stated)
group: No
//
compound: CC1CC[C@@]2(OC1)OC1C[C@H]3[C@@H]4CC[C@H]5CC(OC6OC(CO)C(OC7OC(CO)C(O)C(O)C7OC7OC(CO)C(O)C(O)C7O)C(O)C6O)CCC5(C)[C@H]4CCC3(C)C1[C@@H]2C (some centres not stated)
group: No
//
compound: CCN(CC)CCCOc1cc2c(cc1OC)C(=O)N1CCC[C@H]1C=N2
group: No
//
compound: CC1=C(C(=O)Nc2c(C)cccc2C)C(c2ccc3c(c2)OCO3)C(C(=O)Nc2c(C)cccc2C)=C(C)N1
group: No
//
compound: C=C(CO)CC(O)c1cc(OC)ccc1OC (configuration not stated)
group: No
//
compound: CCOC(=O)/C(=C/c1cccc(OC)c1)N(CC)CC
group: No
//
compound: COC(=O)C12CCC(C(F)(F)C1=O)C2(C)C (configuration not stated)
group: No
//
compound: Cc1cc(C(C)(C)C)cc(Cc2cc(C(C)(C)C)cc(Cc3cc(C(C)(C)C)cc(C)c3O)c2O)c1O
group: No
//
compound: COCOCC[C@@H]1CC=CC(NC(=O)OCc2ccccc2)C1/C=C/C(=O)CCC1OCCO1 (some centres not stated)
group: No
//
compound: COc1ccc(-c2coc3cc(O)cc(O)c3c2=O)cc1
group: No
//
compound: Cc1cc(NC2=NCCO2)c2c(c1C)CCCC2
group: No
//
compound: CCN(CC)C(=S)N/N=C(\C)c1cccc(C)n1
group: Yes
//
compound: N#CNC1=NC(CCCC(=O)Nc2cccc([N+](=O)[O-])c2)=C(c2nc3ccccc3[nH]2)C(N)N1 (configuration not stated)
group: No
//
compound: CCCCC/C=C\C=C1\C(=O)C=C[C@@H]1C/C=C\CCCC(=O)O
group: No
//
compound: C=CC(=O)NCCSCCCOC1(C(=O)O)CC(O)C(NC(C)=O)C(C(O)C(O)CO)O1 (configuration not stated)
group: No
//
compound: COC(=O)Cc1cc(O)c(C/C=C(\C)CC/C=C(\C)C(O)C(=O)C=C(C)C)cc1O (configuration not stated)
group: No
//
compound: O=C1c2ccccc2N2OC3(N4CCCC4)CCCC3C12c1ccccc1 (configuration not stated)
group: No
//
compound: Brc1ccc(-c2ccc(-c3ccc(-c4ccc(Br)s4)s3)s2)s1
group: No
//
compound: CCCCSCC(NC(=O)/C=C/c1c(C)[nH]c(=O)[nH]c1=O)C(=O)OC (configuration not stated)
group: No

Reference for the values: ChEMBL document CHEMBL1201862
